Target: D(4) dopamine receptor (Homo sapiens)
Sequence (whole entry): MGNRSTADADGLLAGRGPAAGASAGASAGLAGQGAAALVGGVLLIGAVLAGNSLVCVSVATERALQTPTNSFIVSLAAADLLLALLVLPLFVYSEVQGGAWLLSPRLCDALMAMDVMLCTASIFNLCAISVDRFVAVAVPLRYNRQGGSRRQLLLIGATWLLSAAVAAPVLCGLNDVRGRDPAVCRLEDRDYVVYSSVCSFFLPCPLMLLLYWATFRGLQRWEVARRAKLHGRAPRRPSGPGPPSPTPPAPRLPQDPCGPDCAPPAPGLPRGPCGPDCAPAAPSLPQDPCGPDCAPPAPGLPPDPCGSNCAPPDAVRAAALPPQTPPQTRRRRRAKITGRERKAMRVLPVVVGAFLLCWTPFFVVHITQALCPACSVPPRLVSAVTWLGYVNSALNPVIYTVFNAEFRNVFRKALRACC
Test: Inhibition of dopaminergic D4 receptor (unknown origin) at 10 uM relative to control
result.type: inhibition (%)
Just the number please, in %, no unit attached.

**Q:** // lookup inhibition for `Cl.NCc1ccc(OCc2cccc(Cl)c2)cc1`
**A:** 79.4

**Q:** // lookup inhibition for `Cl.NCc1ccc(OCc2ccc(OC(F)(F)F)cc2)cc1`
**A:** -0.2

**Q:** // lookup inhibition for `Cl.NCc1ccc(OCc2ccc(F)cc2)cc1`
**A:** 19.5

**Q:** // lookup inhibition for `Cl.NCc1ccc(OCc2cccc(F)c2)cc1`
**A:** 9.9

**Q:** // lookup inhibition for `Cl.NCc1ccc(OCc2ccccc2OC(F)(F)F)cc1`
**A:** 94.6

**Q:** // lookup inhibition for `Cl.NCc1ccc(OCc2cccc(OC(F)(F)F)c2)cc1`
**A:** 22.1

**Q:** // lookup inhibition for `Cl.NCc1ccc(OCc2ccccc2)cc1`
**A:** 27.4

**Q:** // lookup inhibition for `Cl.NCc1ccc(OCc2ccccc2F)cc1`
**A:** 44

**Q:** // lookup inhibition for `Cl.NCc1ccc(OCc2ccc(Cl)cc2)cc1`
**A:** 24.7
